Assay system: T1, human PD-1 (#PD1-H82E4, AcroBiosystems) (human, UniProt Q15116 25-167)
T1 construct: bought
T1 sequence (Q15116 25-167 limits assumed): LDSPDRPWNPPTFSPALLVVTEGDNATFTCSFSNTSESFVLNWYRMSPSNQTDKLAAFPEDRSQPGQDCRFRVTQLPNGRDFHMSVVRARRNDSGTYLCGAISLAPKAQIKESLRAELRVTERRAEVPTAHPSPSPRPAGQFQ
Experimental protocol: SPR, PD-1 on captured IgG1
Property: kon (M⁻¹ s⁻¹)
Quick reminder: number only, in M⁻¹ s⁻¹, skip the unit.

These recorded examples may help you get a feel for the data.
{"Binder": "BBJ602 (antibody, human IgG1, V domains shown, human IgG1) VH: VQLVQSGAEVKKPGASVKVSCKASGYTFTNFYIHWVRQAPGQGLEWMGSIYPNYGITAYNQKFKDRVTMTVDTSTSTAYMELRSLRSDDTAVYYCARGYSYGMDYWGQGTTVTVSS VL: DIQMTQSPSSVSASVGDRVTITCSASQGISGDLNWYQQKPGKAPKLLIYHTSQLHSDVPSRFSGSGSGTDFTLTISSLQPEDFATYYCQGYSKDLLTFGGGTKLEIK", "Assay value": "1.54e+06"}
{"Binder": "ACH836 (antibody, human IgG1, V domains shown, human IgG1) VH: VQLVQSGAEVKKPGASVKVSCKASGYTFTNFYIHWVRQAPGQGLEWMGSIYPNYGITAYNQKFKDRVTMTVDTSTSTAYMELRSLRSDDTAVYYCARGYSYAMDYWGQGTTVTVSS VL: DIQMTQSPSSVSASVGDRVTITCSASQGASGDLNWYQQKPGKAPKLLIYHTSQLHSDVPSRFSGSGSGTDFTLTISSLQPEDFATYYCQGYSKDLLTFGGGTKLEIK", "Assay value": 344000}
{"Binder": "NRT742 (antibody, human IgG1, V domains shown, human IgG1) VH: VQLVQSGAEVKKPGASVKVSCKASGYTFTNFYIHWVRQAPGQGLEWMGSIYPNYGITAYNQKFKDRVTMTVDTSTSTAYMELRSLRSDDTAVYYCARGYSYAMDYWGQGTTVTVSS VL: DIQMTQSPSSVSASVGDRVTITCSASQGISGDLNWYQQKPGKAPKLLIYHASQLHSDVPSRFSGSGSGTDFTLTISSLQPEDFATYYCQGYSKDLLTFGGGTKLEIK", "Assay value": 426000}

Please find the next binder below.
Quick one: kon of OKM590 (antibody, human IgG1, V domains shown, human IgG1) VH: VQLVQSGAEVKKPGASVKVSCKASGYTFTNFYIHWVRQAPGQGLEWMGSIYPNYGITAYNQKFKDRVTMTVDTSTSTAYMELRSLRSDDTAVYYCARGYSYAMDVWGQGTTVTVSS VL: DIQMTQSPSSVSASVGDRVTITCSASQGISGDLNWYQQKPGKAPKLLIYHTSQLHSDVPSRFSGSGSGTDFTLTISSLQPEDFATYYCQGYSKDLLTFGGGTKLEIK ?
409000
